# assay.notes: Inhibition of alpha-crystallin B R120G mutant (unknown origin)-induced intracellular protein aggregation expressed in human HeLa cells or HLE-B3 cells incubated for 6 to 8 hrs by fluorescence microscopy relative to untreated control
Threshold-based label: EC50 under 0.06 µM gives YES, EC50 not under 0.06 µM gives NO.

Use these answered entries as a reference point.
>>> print(df.to_string())
                                chem_smiles  classification
0  C[C@H](CCCC(C)(C)O)[C@H]1CC[C@H]2[C@@H]3CC=C4C[C@@H](O)CC[C@]4(C)[C@H]3CC[C@]12C              NO
1  CC(C)=CCC[C@@H](C)[C@H]1CC[C@@]2(C)C3=C(CC[C@]12C)[C@@]1(C)CC[C@H](O)C(C)(C)[C@@H]1CC3              NO
2  C[C@H](CCCC(C)(C)O)[C@H]1CC[C@@]2(C)C3=C(CC[C@]12C)[C@@]1(C)C[C@@H](F)[C@@H](O)C(C)(C)[C@@H]1CC3             YES
3  C[C@H](CCCC(C)(C)O)[C@H]1CC[C@@]2(C)C3=C(CC[C@]12C)[C@@]1(C)C[C@@H](F)[C@H](O)C(C)(C)[C@@H]1CC3             YES
4  C[C@H](CCCC(C)(C)O)[C@H]1CC[C@@]2(C)C3=C(CC[C@]12C)[C@@]1(C)CCC(=O)C(C)(C)[C@@H]1CC3              NO
5  C[C@H](CCCC(C)(C)O)[C@H]1CC[C@@]2(C)C3=CC[C@H]4C(C)(C)[C@@H](O)CC[C@]4(C)C3=CC[C@]12C              NO

Consider now this further molecule.
**Query** Does this molecule meet the criterion EC50 < 0.06 µM? C[C@H](CCCC(C)(C)O)[C@H]1CC[C@@]2(C)C3=C(CC[C@]12C)[C@@]1(C)CC[C@H](O)C(C)(C)[C@@H]1CC3
**Result** YES
